System: blackgrass (Alopecurus myosuroides)
assay name: Test B pre-/postemergence plant response
Format: in vivo
experimental setup: Postemergence, 62 g ai/ha; scale 0 to 100, 0 no effect, 100 complete control
Excerpt: […] Plant species in the flooded paddy test consisted of rice (Oryza sativa), umbrella sedge (Cyperus difformis), ducksalad (Heteranthera limosa) and barnyardgrass (Echinochloa crus-galli) grown to the 2-leaf stage for testing. […] Treated plants and controls were maintained in a greenhouse for 13 to 15 days, after which time all species were compared to controls and visually evaluated. […]
assay endpoint: Plant response rating, Blackgrass
Could you keep your reply to the number by itself?

> print(dat)
                              sample.smiles  measured
1  CCc1cc(-c2ccc(Cl)cc2)nn1-c1c(OS(C)(=O)=O)cnn(C)c1=O       100
2  CCc1cc(-c2ccc(Cl)cc2)nn1-c1c(OC(=O)C(C)(C)C)cnn(C)c1=O        90
3  Cc1cc(-c2ccc(Cl)cc2)nn1-c1c(OC(=O)OCC(C)C)cnn(C)c1=O        95

Now look at this one.
Provide measured Plant response rating, Blackgrass value, entry: CCc1cc(-c2ccc(Cl)cc2)nn1-c1c(OC(=O)OC(C)C)cnn(C)c1=O
95

* * *

Parameter: Oat, Wild plant response rating. Scope: all listed entries.
Tested on: wild oat (Avena fatua)
assay name: Test B pre-/postemergence plant response
Type: in vivo
experimental setup: Preemergence; 8 g ai/ha; scale 0 to 100
Could you keep your reply to the number by itself?

Here are 5 molecules together with their reported answers.
> print(dat)
                              sample.smiles  measured
1  CCc1cc(-c2ccc(F)cc2)nn1-c1c(O)cnn(C)c1=O         0
2  CCc1cc(-c2ccc(Br)cc2)nn1-c1c(O)cnn(C)c1=O        40
3  CCc1cc(-c2ccc(Cl)cc2)nn1-c1c(OC(=O)OC(C)C)cnn(C)c1=O        70
4  CCc1cc(-c2ccc(Cl)cc2)nn1-c1c(OS(C)(=O)=O)cnn(C)c1=O        70
5  CCc1cc(-c2ccc(C(F)(F)F)cc2)nn1-c1c(OS(C)(=O)=O)cnn(C)c1=O        60

Now look at this one.
Provide measured Oat, Wild plant response rating value, entry: Cc1cc(-c2ccc(Cl)cc2)nn1-c1c(OS(C)(=O)=O)cnn(C)c1=O
0

* * *

Parameter: pest or weed control at 125 g/ha. Scope: all listed entries.
System: large crabgrass (Digitaria sanguinalis)
assay name: Test A pre-/postemergence plant response
Assay type: in vivo
experimental setup: Digitaria sanguinalis, post-emergence, 240 h; Postemergence, 125 g ai/ha; 0 to 100 scale, 0 no effect, 100 complete control; read-out: Plant response rating, Crabgrass, Large
Answer format: numeric, % implied, no suffix.

> print(dat)
                              sample.smiles  measured
1  Cc1cn(-c2ccc(Cl)cc2)nc1-c1c(O)cnn(C)c1=O        60
2  Cc1nn(C)c(=O)c(-n2nc(-c3ccc(C(F)(F)F)cc3)cc2C)c1O        80
3  Cc1cc(-c2ccc(Br)cc2)nn1-c1c(OC(=O)C2CC2)cnn(C(=O)C2CC2)c1=O       100

Now look at this one.
Provide measured pest or weed control at 125 g/ha value, entry: Cc1cc(-c2ccc(Br)cc2)nn1-c1c(O)cn[nH]c1=O
100

* * *

System: blackgrass (Alopecurus myosuroides)
assay name: Test B pre-/postemergence plant response
Type: in vivo
experimental setup: Preemergence, 31 g ai/ha; scale 0 to 100 (0 no effect, 100 complete control)
Parameter: Plant response rating, Blackgrass. Scope: all listed entries.
Could you keep your reply to the number by itself?

> print(dat)
                              sample.smiles                        tested.target  measured
1  C#CCOC(=O)Oc1cnn(C)c(=O)c1-n1nc(-c2ccc(Cl)cc2)cc1C  blackgrass (Alopecurus myosuroides)       100
2  Cc1nn(C)c(=O)c(-n2nc(-c3ccc(Br)cc3)cc2C)c1O  blackgrass (Alopecurus myosuroides)       100
3  Cc1cc(-c2ccc(Cl)cc2)nn1-c1c(OC(=S)N(C)C)cnn(C)c1=O  blackgrass (Alopecurus myosuroides)        40

Provide measured Plant response rating, Blackgrass value, entry: CCc1cc(-c2ccc(Br)cc2)nn1-c1c(O)cnn(C)c1=O
100

* * *

Parameter: Lambsquarters plant response rating. Scope: all listed entries.
Test system: lambsquarters (Chenopodium album)
assay name: Test B pre-/postemergence plant response
Assay type: in vivo
experimental setup: 8 g ai/ha, postemergence; 0-100 scale
Excerpt: […] Plant species in the flooded paddy test consisted of rice (Oryza sativa), umbrella sedge (Cyperus difformis), ducksalad (Heteranthera limosa) and barnyardgrass (Echinochloa crus-galli) grown to the 2-leaf stage for testing. […] Treated plants and controls were maintained in a greenhouse for 13 to 15 days, after which time all species were compared to controls and visually evaluated. […]
Could you keep your reply to the number by itself?

> print(dat)
                              sample.smiles                       assay.endpoint  measured
1  CCc1c(C)c(-c2ccc(Cl)cc2)nn1-c1c(O)cnn(C)c1=O  Lambsquarters plant response rating         0
2  COCc1cc(-c2ccc(Br)cc2)nn1-c1c(O)cnn(C)c1=O  Lambsquarters plant response rating         0
3  Cc1cc(-c2ccc(Br)cc2)nn1-c1c(OC(=O)C2CC2)cnn(C(=O)C2CC2)c1=O  Lambsquarters plant response rating         0
4  Cc1cc(-c2ccc(Cl)cc2)nn1-c1c(OC(=O)OCC(C)C)cnn(C)c1=O  Lambsquarters plant response rating         0

Supply Lambsquarters plant response rating measured with lambsquarters (Chenopodium album) for Cc1cc(-c2ccc(Br)cc2)nn1-c1c(O)cn[nH]c1=O .
0

Supply Lambsquarters plant response rating measured with lambsquarters (Chenopodium album) for Cc1nn(C)c(=O)c(-n2nc(-c3ccc(Br)cc3)cc2C)c1O .
0

Supply Lambsquarters plant response rating measured with lambsquarters (Chenopodium album) for Cc1cc(-c2ccc(Cl)cc2)nn1-c1c(OS(C)(=O)=O)cnn(C)c1=O .
0

Supply Lambsquarters plant response rating measured with lambsquarters (Chenopodium album) for CCc1cc(-c2ccc(C(F)(F)F)cc2)nn1-c1c(OS(C)(=O)=O)cnn(C)c1=O .
0

Supply Lambsquarters plant response rating measured with lambsquarters (Chenopodium album) for Cc1cc(-c2ccc(Cl)cc2)nn1-c1c(OC(=S)N(C)C)cnn(C)c1=O .
0

* * *

System: woolly cupgrass (Eriochloa villosa)
assay name: Test B pre-/postemergence plant response
Format: in vivo
experimental setup: Postemergence, 16 g ai/ha; scale 0 to 100
Parameter: Plant response rating, Cupgrass, Woolly. Scope: all listed entries.
Could you keep your reply to the number by itself?

Here are 5 compounds together with their reported answers.
> print(dat)
                                   compound  measured
1  Cc1cc(-c2ccc(Cl)cc2)nn1-c1c(OS(C)(=O)=O)cnn(C)c1=O [Compound 36]        90
2  CCc1cc(-c2ccc(F)cc2)nn1-c1c(O)cnn(C)c1=O [Compound 25]        80
3  CCc1cc(-c2ccc(Cl)cc2)nn1-c1c(OC(=O)OC(C)C)cnn(C)c1=O [Compound 41]       100
4  Cc1cc(-c2ccc(Cl)cc2)nn1-c1c(OC(=S)N(C)C)cnn(C)c1=O [Compound 69]        90
5  Cc1cc(-c2ccc(Cl)cc2)nn1-c1c(OC(=O)OCC(C)C)cnn(C)c1=O [Compound 57]        90

Now look at this one.
Provide measured Plant response rating, Cupgrass, Woolly value, entry: Cc1nn(C)c(=O)c(-n2nc(-c3ccc(Br)cc3)cc2C)c1O [Compound 81]
85

* * *

Parameter: Plant response rating, Foxtail, Green. Scope: all listed entries.
Test system: green foxtail (Setaria viridis)
assay name: Test C pre-/postemergence plant response
Type: in vivo
experimental setup: Postemergence, 31 g ai/ha; scale 0 to 100, 0 no effect, 100 complete control
Could you keep your reply to the number by itself?

Here are 3 compounds together with their reported answers.
> print(dat)
                              sample.smiles  measured
1  CCc1c(C)c(-c2ccc(Cl)cc2)nn1-c1c(O)cnn(C)c1=O        95
2  CCc1cc(-c2ccc(F)cc2)nn1-c1c(O)cnn(C)c1=O        95
3  CCc1cc(-c2ccc(C(F)(F)F)cc2)nn1-c1c(OS(C)(=O)=O)cnn(C)c1=O       100

Now look at this one.
Provide measured Plant response rating, Foxtail, Green value, entry: CCc1cc(-c2ccc(C(F)(F)F)cc2)nn1-c1c(O)cnn(C)c1=O
100

* * *

System: large crabgrass (Digitaria sanguinalis)
assay name: Test E pre-/postemergence plant response
Format: in vivo
experimental setup: 16 g ai/ha, Preemergence, scale 0 to 100
assay endpoint: Plant response rating, Crabgrass, Large
Could you keep your reply to the number by itself?

> print(dat)
                                   molecule  measured
1  Cc1cc(-c2ccc(Cl)cc2)nn1-c1c(OS(C)(=O)=O)cnn(C)c1=O [Compound 36]        95
2  Cn1ncc(O)c(-c2nn(-c3ccc(Cl)cc3)cc2Br)c1=O [Compound 31]        40
3  COC(=O)Oc1cnn(C)c(=O)c1-n1nc(-c2ccc(Cl)cc2)cc1C [Compound 33]        75

Now look at this one.
Provide measured Plant response rating, Crabgrass, Large value, entry: CCc1cc(-c2ccc(C(F)(F)F)cc2)nn1-c1c(O)cnn(C)c1=O [Compound 11]
30
